# assayed-target: Guanine nucleotide-binding protein G(o) subunit alpha (Homo sapiens) (UniProt P09471)
# Sequence (P09471 whole entry, looked up): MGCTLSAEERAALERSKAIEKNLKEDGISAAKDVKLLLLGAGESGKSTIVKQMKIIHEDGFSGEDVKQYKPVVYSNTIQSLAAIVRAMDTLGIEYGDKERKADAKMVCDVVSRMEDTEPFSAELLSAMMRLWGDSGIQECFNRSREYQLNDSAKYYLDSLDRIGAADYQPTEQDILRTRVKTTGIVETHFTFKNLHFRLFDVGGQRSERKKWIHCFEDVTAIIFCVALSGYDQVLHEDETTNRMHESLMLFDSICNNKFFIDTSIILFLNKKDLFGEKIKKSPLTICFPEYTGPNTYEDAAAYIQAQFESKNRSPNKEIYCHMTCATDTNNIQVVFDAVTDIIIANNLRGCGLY
# method: compounds changing RGS7 association with Galphao – biochemical, multiplexed bead flow cytometry, primary screen (AID 1439);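 further: fluorescent Galphao held in activated GDP-AlF4 state binding bead-coupled RGS7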
# condition-description: at 10 µM, actives lie on both sides
The campaign covered roughly 220,000 compounds. About 770 (0.35%) were called active. Another 15% or so got no clear call; they are omitted. No stated cut-off is given here; in the data, active means binding response below about 49% or above about 150%; inconclusive means no clear call, values can overlap the other calls; inactive means in between. Only a selection was taken, and actives are over-represented in it overall.
The categories you may choose from are t for active, f for inactive

Worked examples follow.
1. COC(=O)C1=C(C)N(c2ccc(C)cc2)/C(=C/c2ccc(O)cc2)C1=O : f
2. CN(C)C(=O)CSc1n[nH]c(-c2ccco2)n1 : f
3. Cn1c(CCN2CCCCCC2)nc2cc(NC(=O)Nc3ccccc3)ccc21 : f
4. O=C(CC1SC(=Nc2ccccc2F)N(CCN2CCOCC2)C1=O)Nc1ccc(F)cc1F (stereo not drawn) : f
5. CC1(C)CC(=O)C(CC(=O)N2CCC(Cc3ccccc3)CC2)C(=O)C1 : f

query: // param item: Fc1ccc(COc2cccc(-c3n[nH]c(=S)o3)c2)cc1 ; yields the recorded call
result: f

query: What about this compound? CN(CCc1ccccn1)C(=O)CCC1CCCN(Cc2ccccc2OC(F)F)C1 (stereo not drawn)
result: f

query: Please do the same for O=C(Cc1c[nH]c2ccccc12)OCCOC(=O)Cc1c[nH]c2ccccc12 as well.
result: f

query: Let us now turn to CN(C)c1ccc2c(=O)[nH][nH]c(=O)c2c1
result: f

query: Subsequent entry: COC(=O)c1cc2n(n1)CCCNC2=O
result: f

====

# assayed-target: Guanine nucleotide-binding protein G(o) subunit alpha (Homo sapiens) (UniProt P09471)
# method: compounds changing RGS7 association with Galphao – biochemical, multiplexed bead flow cytometry, primary screen (AID 1439);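 further: fluorescent Galphao held in activated GDP-AlF4 state binding bead-coupled RGS7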
# condition-description: at 10 µM, actives lie on both sides
About 770 (0.35%) of roughly 220,000 compounds were called active. Another 15% or so got no clear call; they are omitted. Rule as the data show it: active = binding response below about 49% or above about 150%; inconclusive = no clear call, values can overlap the other calls; inactive = in between. This is one part of a sample in which actives are shown more often than they occur.
Hi! Could you answer with just one of these? active, inactive

query: Called result for O=C(COc1ccc(Cl)cc1)N1CCN(c2cccc(C(F)(F)F)c2)CC1
result: inactive

query: # iterate: Cn1c(SCC(=O)N2CCCc3ccccc32)nc2ccccc2c1=O
result: inactive

query: Further, for Cc1c(C(=O)Nc2ccccc2)sc2nc3n(c(=O)c12)CCCCC3 ?
result: inactive

====

# assayed-target: Guanine nucleotide-binding protein G(o) subunit alpha (Homo sapiens) (UniProt P09471)
# method: compounds changing RGS7 association with Galphao – biochemical, multiplexed bead flow cytometry, primary screen (AID 1439);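 further: fluorescent Galphao held in activated GDP-AlF4 state binding bead-coupled RGS7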
# condition-description: at 10 µM, actives lie on both sides
About 770 (0.35%) of roughly 220,000 compounds were called active. Roughly 15% stayed inconclusive and do not appear here. Rule as the data show it: active = binding response below about 49% or above about 150%; inconclusive = no clear call, values can overlap the other calls; inactive = in between. Only a selection was taken, and actives are over-represented in it overall.
Can you answer with just one of these options? active, inactive

Take a look at these entries with their results.
1. CCOC(=O)C1C(c2ccc(Cl)cc2)NC(=S)NC1(O)C(F)(F)F (configuration not stated) : inactive
2. CCOC(=O)C1=C(C)NC(=O)N(C(C)=O)C1c1ccc(Cl)cc1 (configuration not stated) : inactive

query: Returns: the outcome recorded for CSc1ccc(C(=O)C2CCCN(C(=O)c3ccc(C)nc3)C2)cc1 (configuration not stated) in this assay.
result: inactive

query: # iterate: S=C(Nc1cccc(Br)c1)N1CCn2cccc2C1c1cccnc1 (configuration not stated)
result: inactive

query: Now consider CS/C(=C\[N+](=O)[O-])Nc1ccc(C)cc1 and answer again.
result: inactive

query: Same question, O=C(Nc1ccccc1)c1cccnc1Nc1ccccc1 this time
result: inactive

query: Try this compound next: O=C(Nc1cccc(F)c1)c1coc(=O)c(Br)c1
result: active

query: Same thing, different compound: CC(C)(O)C#Cc1ccc(C(=O)N2CCC(C(N)=O)(N3CCCCC3)CC2)cc1
result: inactive

query: // repeat for CCC(=O)N1CCC(C(N)=O)(N2CCCCC2)CC1 and report
result: active

query: Please do the same for CCN(CC)CCOC(=O)c1ccc(NC(=O)CNC(=O)c2ccccc2)cc1 as well.
result: inactive

query: How about Cc1ccc(NC(=O)c2cccnc2C(=O)Nc2ccc(C)cc2)cc1 ?
result: inactive

query: Further, for CC(=O)N1CCc2cc(Br)cc(S(=O)(=O)CCC(=O)Nc3c(C)n(C)n(-c4ccccc4)c3=O)c21 ?
result: inactive

query: What would you report for C=CCn1c(Cn2nnc3ccccc32)nnc1SCC(=O)N/N=C/c1cc(Br)cc(OC)c1O ?
result: active

query: Moving on to the next compound: COc1cc2c(cc1OC)CN(C(=O)c1cc(=O)c3ccccc3o1)CC2
result: inactive

query: Now this one: Cn1c(=O)c2c(n(Cc3ccccc3)c1=O)NC(=O)C2CC(=O)N1CCc2ccccc2C1 (configuration not stated)
result: active

query: Item: N/C(=N/O)c1cccn1Cc1ccccc1[N+](=O)[O-]
result: inactive

query: Now consider COc1ccc(C(=O)NC2CCN(C(=S)NCCc3ccccc3)CC2)cc1 and answer again.
result: inactive

query: Try this compound next: O=C(Nc1ccc(-n2ccnc2P(=O)(O)c2ccccc2)cc1)c1ccccc1Br
result: active

query: Another compound: Cc1c(NC(=O)c2coc(=O)c(Br)c2)c(=O)n(-c2ccccc2)n1C
result: inactive

query: Param item: Cc1cccc(NC(=S)N2CCCC(c3nc4ccccc4[nH]3)C2)c1 (configuration not stated)
result: inactive

query: Please do the same for O=C(Nc1cccc(F)c1)c1ccc(S(=O)(=O)N2CCCC2)cc1 as well.
result: inactive

query: Another compound to check: CSc1ccc(CN2C(=O)NC3(CCCCCC3)C2=O)cc1
result: active

====

# assayed-target: Guanine nucleotide-binding protein G(o) subunit alpha (Homo sapiens) (UniProt P09471)
# method: compounds changing RGS7 association with Galphao – biochemical, multiplexed bead flow cytometry, primary screen (AID 1439);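 further: fluorescent Galphao held in activated GDP-AlF4 state binding bead-coupled RGS7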
# condition-description: at 10 µM, actives lie on both sides
Among all 220,000 compounds or so, about 770 (0.35%) were called active. Inconclusive results (about 15%) are left out. Cut-off read from the data, not from the text of the source: active = binding response below about 49% or above about 150%; inconclusive = no clear call, values can overlap the other calls; inactive = in between. Many of the other results were omitted from the sample, so actives are more common in it than they were.
Please answer using one outcome listed in active, inactive

Below are worked cases with known answers.
1) COc1cc(C2/C(=C(\O)c3ccc4c(c3)CC(C)O4)C(=O)C(=O)N2Cc2ccco2)ccc1O (stereo not given) : active
2) c1ccc2c(NC3C4CC5CC(C4)CC3C5)nc(N3CCOCC3)nc2c1 (stereo not given) : inactive
3) COc1ccccc1C(=O)n1nc(-c2ccccc2)nc1N : inactive
4) O=C(O)CCCCCNc1ncnc2ccc(Br)cc12 : inactive
5) CCCn1c(NC(=O)C23CC4CC(CC(O)(C4)C2)C3)nc2ccccc21 : inactive

query: Which outcome did this test record for the compound COc1cccc(C(=O)NNC(=O)c2ccccc2Br)c1 ?
result: inactive

query: Next compound up: CCOC(=O)c1nc(C)n(-c2ccc(Cl)cc2Cl)n1
result: inactive

query: And the next one, CCCCOC(=O)Cn1c(=N)n(CCN(CC)CC)c2ccccc21 ?
result: active

query: Note, next up: CN1CCN(C(CNS(=O)(=O)c2cccs2)c2cccnc2)CC1 (stereo not given)
result: active

query: Record: O=C(CCCCCn1c(=O)[nH]c2ccccc2c1=O)NCCc1c[nH]c2ccccc12
result: inactive

query: Cool, now CCn1c(=N)n(CC(=O)c2cccc(OC)c2)c2ccccc21
result: inactive

====

# assayed-target: Guanine nucleotide-binding protein G(o) subunit alpha (Homo sapiens) (UniProt P09471)
# method: compounds changing RGS7 association with Galphao – biochemical, multiplexed bead flow cytometry, primary screen (AID 1439);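 further: fluorescent Galphao held in activated GDP-AlF4 state binding bead-coupled RGS7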
# condition-description: at 10 µM, actives lie on both sides
The whole screen tested about 220,000 compounds, of which about 770 (0.35%) were called active. Roughly 15% stayed inconclusive and do not appear here. Rule as the data show it: active = binding response below about 49% or above about 150%; inconclusive = no clear call, values can overlap the other calls; inactive = in between. What follows is part of a selection rich in actives, with near analogues and random picks from the rest.
The categories you may choose from are active, inactive

1. CCOC(=O)c1oc2c(CN3CCN(C)CC3)c(O)ccc2c(=O)c1-c1ccc(Br)cc1 : active
2. C=CCN1C2CCCC1CC(NC(=S)Nc1cccc(OC)c1)C2 (stereo not given) : inactive
3. CN1CCN(Cc2c(O)ccc3c2oc(=O)c2ccccc23)CC1 : inactive
4. CC1=CC=CN2C1=NC(=O)CC2(C)C(=O)N(CC(=O)NC1CCCC1)c1ccccc1C (stereo not given) : inactive

Let's switch to this molecule now.
query: Could you check what this test reported for CCC(=O)OCCNc1nc(-c2ccccc2)nc2ccccc12 ?
result: inactive

====

# assayed-target: Guanine nucleotide-binding protein G(o) subunit alpha (Homo sapiens) (UniProt P09471)
# method: compounds changing RGS7 association with Galphao – biochemical, multiplexed bead flow cytometry, primary screen (AID 1439);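 further: fluorescent Galphao held in activated GDP-AlF4 state binding bead-coupled RGS7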
# condition-description: at 10 µM, actives lie on both sides
Among all 220,000 compounds or so, about 770 (0.35%) were called active. Inconclusive results (about 15%) are left out. No stated cut-off is given here; in the data, active means binding response below about 49% or above about 150%; inconclusive means no clear call, values can overlap the other calls; inactive means in between. For the sample, actives were picked, then their nearest neighbours and some compounds at random.
Your answer must be one of the following: 1 (yes) for active, 0 (no) for inactive

Examples with answers:
1) O=[N+]([O-])c1ccc(Sc2n[nH]c(-c3ccco3)n2)nc1 : 0 (no)
2) Cc1cc2nc(C)n(CCCNC(=O)Nc3ccccc3)c2cc1C : 1 (yes)
3) Cc1cc(NC(=O)COc2ccc(Cl)cc2Cl)n(CCC#N)n1 : 0 (no)

query: Test call, this compound: O=C(CSc1nnc(-c2c[nH]c3ccccc23)o1)c1ccccc1
result: 0 (no)

query: Likewise for Cc1ccc2[nH]c(=O)c(CN(CC3COCCO3)C(=O)Nc3ccccc3C)cc2c1 (stereo not drawn) ?
result: 0 (no)

query: And then Clc1cccc(-c2nc(NCC3CCCO3)c3ccccc3n2)c1 (stereo not drawn) , what is it?
result: 0 (no)

query: Param item: COc1cccc(C2c3[nH]c4ccccc4c3CCN2Cc2cccc(C)n2)c1 (stereo not drawn)
result: 0 (no)

query: Moving on to FC(F)(F)c1cccc(Cc2noc(CN3CCC(N4CCCCC4)CC3)n2)c1
result: 0 (no)

query: Now this one: O=C(CCc1ccccc1)Nc1ccc(NC(=O)C2CCCCC2)nc1
result: 0 (no)
